Reference source for all entries: a melting point compilation (Tetko et al.)

# melting point listing for each entry below
Reply numerically in °C, unit not repeated.

Example results:
[[record]]
compound = "Clc1cc2c(c(Cl)c1Cl)Oc1c(cc(Cl)c(Cl)c1Cl)O2"
recordedmeasurement = 243

[[record]]
compound = "CNC(=O)Oc1cccc(C)c1"
recordedmeasurement = 77.7


Request: Consider the compound N#CCC=CCC#N and give its measured melting point.
Response: 76

Request: Consider the compound O=C(O)C1(C(=O)O)C2CCCCCCC21 (centres undefined) and give its measured melting point.
Response: 217

Request: Consider the compound C#CC1(O)CCC2(C)C(CCC3C2CCC2(C)C(OC(C)=O)CCC32)C1 (centres undefined) and give its measured melting point.
Response: 196

Request: Consider the compound COc1cc2c(cc1OC)C(=O)NCC2 and give its measured melting point.
Response: 175

Request: Consider the compound CCC(CCC(C)C1CCC2C3=CC=C4CC(O)CCC4(C)C3CCC21C)C(C)C (centres undefined) and give its measured melting point.
Response: 144

Request: Consider the compound CC(=O)c1csc2ccccc12 and give its measured melting point.
Response: 64

Request: Consider the compound COP(=S)(OC)Oc1ccc(S(=O)(=O)N(C)C)cc1 and give its measured melting point.
Response: 53

Request: Consider the compound CS(=O)(=O)c1nn(-c2ccccc2)c(N)c1C#N and give its measured melting point.
Response: 190

Request: Consider the compound COc1ccc2c3c1OC1C(=O)CCC4(O)C(C2)N(C)CCC314 (centres undefined) and give its measured melting point.
Response: 219

Request: Consider the compound O=C(O)c1cc(Br)cc2c1OCC2 and give its measured melting point.
Response: 230

Request: Consider the compound N=C(N)NOCCC(N)C(=O)O (centres undefined) and give its measured melting point.
Response: 184
